Where these numbers come from: ChEMBL document CHEMBL1150684

system: A2780; test: Cytotoxicity against human A2780 cells; assay type: functional, cell-based
This listing pairs molecules with measured IC50.

Molecule: C=C(C)[C@@H]1CC[C@]2(COC(C)=O)CC[C@]3(C)[C@H](CC[C@@H]4[C@@]5(C)CC[C@H](OC(C)=O)C(C)(C)[C@@H]5CC[C@]43C)[C@@H]12 [BETULIN DIACETATE]
IC50: ≥ 20 µg/mL

Molecule: C=C(C)[C@@H]1CC[C@]2(C)CC[C@]3(C)[C@H](CC[C@@H]4[C@@]5(C)CC[C@H](OC(C)=O)C(C)(C)[C@@H]5CC[C@]43C)[C@@H]12 [LUPENYL ACETATE]
IC50: 16 µg/mL

Molecule: C=C(C)[C@@H]1CC[C@]2(C(=O)O)CC[C@]3(C)[C@H](CC[C@@H]4[C@@]5(C)CC[C@@H](O)C(C)(C)[C@@H]5CC[C@]43C)[C@@H]12 [EPIBETULINIC ACID]
IC50: ≥ 20 µg/mL

Molecule: C=C(C)[C@@H]1CC[C@]2(C(=O)O)CC[C@]3(C)[C@H](CC[C@@H]4[C@@]5(C)CC[C@H](O)C(C)(C)[C@@H]5CC[C@]43C)[C@@H]12
IC50: ≥ 20 µg/mL

Molecule: C[C@H]1[C@H](C)CC[C@]2(C(=O)O)CC[C@]3(C)C(=CC[C@@H]4[C@@]5(C)CC[C@H](O)C(C)(C)[C@@H]5CC[C@]43C)[C@H]12
IC50: ≥ 20 µg/mL

Molecule: C=C(C)[C@@H]1CC[C@]2(C(=O)O)CC[C@]3(C)[C@H](CC[C@@H]4[C@@]5(C)CCCC(C)(C)[C@@H]5CC[C@]43C)[C@@H]12
IC50: 17.4 µg/mL

Molecule: C=C(C)[C@@H]1CC[C@]2(C)CC[C@]3(C)[C@H](CC[C@@H]4[C@@]5(C)CC[C@H](O)C(C)(C)[C@@H]5CC[C@]43C)[C@@H]12
IC50: ≥ 20 µg/mL

Molecule: C=C(C)[C@@H]1CC[C@]2(C)CC[C@]3(C)[C@H](C[C@@H](O)[C@@H]4[C@]56CC[C@H](OC5=O)C(C)(C)[C@@H]6CC[C@]43C)[C@@H]12
IC50: 18 µg/mL

Molecule: CC1(C)CC[C@]2(C(=O)O)CC[C@]3(C)C(=CC[C@@H]4[C@@]5(C)CC[C@H](O)C(C)(C)[C@@H]5CC[C@]43C)[C@@H]2C1
IC50: ≥ 20 µg/mL

Molecule: C=C(C)[C@@H]1CC[C@]2(C=O)CC[C@]3(C)[C@H](CC[C@@H]4[C@@]5(C)CC[C@@H](O)C(C)(C)[C@@H]5CC[C@]43C)[C@@H]12
IC50: ≥ 20 µg/mL

Molecule: C=C(C)[C@@H]1CC[C@]2(C)CC[C@]3(C)[C@H](CC[C@@H]4[C@@]5(COC(C)=O)CC[C@H](OC(C)=O)C(C)(C)[C@@H]5CC[C@]43C)[C@@H]12
IC50: 9.6 µg/mL
